Record form. Attribute: MIC. Fill in for each entry.
- System: Candida albicans
- procedure summary: Antifungal activity against Candida albicans MTCC 227 assessed as growth inhibition after 48 hr by broth dilution method
- Assay type: functional
- assay conditions: MTCC 227, 48 h
I only need the number, in µg/mL, no unit after it.

Problem: Look up and report measured MIC for this entry: CC1=N/C(=C\c2cccc(C)c2)C(=O)N1c1ccc(/C(C)=N/N=C2/NC(=O)CS2)cc1
Solution: 500

Problem: Look up and report measured MIC for this entry: CC1=N/C(=C\c2ccc(C)cc2)C(=O)N1c1ccc(/C(C)=N/N=C2/NC(=O)CS2)cc1
Solution: 250

Problem: Look up and report measured MIC for this entry: CC1=N/C(=C\c2ccccc2[N+](=O)[O-])C(=O)N1c1ccc(/C(C)=N/N=C2/NC(=O)CS2)cc1
Solution: 500

Problem: Look up and report measured MIC for this entry: CC(=O)c1ccc(N2C(=O)/C(=C\c3ccccc3O)N=C2C)cc1
Solution: 1000

Problem: Look up and report measured MIC for this entry: COc1ccccc1/C=C1\N=C(C)N(c2ccc(/C(C)=N/N=C3/NC(=O)CS3)cc2)C1=O
Solution: 500

Problem: Look up and report measured MIC for this entry: CC1=N/C(=C\c2ccccc2)C(=O)N1c1ccc(/C(C)=N/N=C2/NC(=O)CS2)cc1
Solution: 1000

Problem: Look up and report measured MIC for this entry: CC(=O)c1ccc(N2C(=O)/C(=C\c3ccc(O)cc3)N=C2C)cc1
Solution: 1000

Problem: Look up and report measured MIC for this entry: CC1=N/C(=C\c2ccccc2C)C(=O)N1c1ccc(/C(C)=N/N=C2/NC(=O)CS2)cc1
Solution: 500

Problem: Look up and report measured MIC for this entry: CC1=N/C(=C\c2ccccc2Cl)C(=O)N1c1ccc(/C(C)=N/N=C2/NC(=O)CS2)cc1
Solution: 1000

Problem: Look up and report measured MIC for this entry: CC1=N/C(=C\c2ccc(F)cc2)C(=O)N1c1ccc(/C(C)=N/N=C2/NC(=O)CS2)cc1
Solution: 500
